The origin of these recorded values is paper PMC6271731.

system: soybean lipoxygenase (Glycine max)
Construct: purchased Sigma Chemical, Co. (St. Louis, MO, USA)
Sequence (P08170 1-839): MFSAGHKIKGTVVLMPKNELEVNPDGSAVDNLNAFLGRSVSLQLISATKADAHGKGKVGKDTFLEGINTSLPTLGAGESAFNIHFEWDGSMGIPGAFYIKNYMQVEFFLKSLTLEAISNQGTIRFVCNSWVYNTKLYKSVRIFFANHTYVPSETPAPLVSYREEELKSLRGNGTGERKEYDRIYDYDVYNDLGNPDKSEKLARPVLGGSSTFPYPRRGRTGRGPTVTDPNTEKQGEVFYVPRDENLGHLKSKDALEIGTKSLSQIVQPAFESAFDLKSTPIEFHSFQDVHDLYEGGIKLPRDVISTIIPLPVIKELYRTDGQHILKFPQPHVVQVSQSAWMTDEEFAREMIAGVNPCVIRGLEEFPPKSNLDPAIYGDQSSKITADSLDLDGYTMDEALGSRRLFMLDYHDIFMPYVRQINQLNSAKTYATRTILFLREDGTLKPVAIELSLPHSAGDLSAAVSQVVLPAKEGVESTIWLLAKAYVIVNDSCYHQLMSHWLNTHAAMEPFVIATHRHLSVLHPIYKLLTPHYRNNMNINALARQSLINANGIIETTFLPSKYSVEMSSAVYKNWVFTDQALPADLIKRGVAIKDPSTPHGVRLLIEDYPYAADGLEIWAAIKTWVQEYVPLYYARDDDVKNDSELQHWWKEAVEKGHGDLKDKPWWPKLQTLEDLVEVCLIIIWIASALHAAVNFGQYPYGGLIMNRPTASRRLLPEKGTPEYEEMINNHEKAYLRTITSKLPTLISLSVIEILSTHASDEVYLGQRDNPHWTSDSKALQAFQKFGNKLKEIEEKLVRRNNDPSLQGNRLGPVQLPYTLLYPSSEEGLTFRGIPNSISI
protocol.summary: Soybean lipoxygenase inhibition in vitro
Type: biochemical
Give pIC50 for every item shown.
Would you please state pIC50, meaning minus log10 of the concentration in mol/L, as a bare number?

What the record says about "CC(=O)Nc1ccc(OC(=O)/C=C/c2ccc(OCc3ccc(Br)cc3)cc2)cc1" : pIC50 is 4.26

Recorded result, "O=C(/C=C/c1cccc(Oc2ccccc2)c1)Nc1cccc(OC(=O)/C=C/c2cccc(Oc3ccccc3)c2)c1" , pIC50: 4.14

Entry "O=C(/C=C/c1cccc(Oc2ccccc2)c1)Oc1cc(=O)oc2ccccc12" — recorded pIC50 = 4.00

Just so you know, measured pIC50 for "O=C(O)/C=C/c1ccc(OCc2ccc(Br)cc2)cc1" came out at 4.18

Record "CC(=O)Nc1ccc(OC(=O)/C=C/c2cccc(Oc3ccccc3)c2)cc1" . Reported pIC50: 4.00

----------
System: carrageenin-induced rat paw oedema
protocol.summary: Inhibition of the carrageenin-induced rat paw oedema
Format: in vivo, Fisher-344 rats
condition.context: 0.01 mmol/1 kg, i.p., 3.5 h after carrageenin
Marks after values point to notes of the source that are not given here.
parameter.measured: % ICPE (carrageenin-induced rat paw oedema inhibition)

Looking up COc1ccc2c(c1)c(CC(=O)O)c(C)n2C(=O)c1ccc(Cl)cc1 [Indomethacin, reference compound] , I found its % ICPE (carrageenin-induced rat paw oedema inhibition) recorded as 47 * %

Field % ICPE (carrageenin-induced rat paw oedema inhibition) (entry O=c1cc(O)c2ccccc2o1 [Compound 4-HC, 4-hydroxycoumarin, reference compound] ) reads 62 * %

% ICPE (carrageenin-induced rat paw oedema inhibition) measured on "O=C(O)/C=C/c1cccs1" = 42.7 * %

Summary for this molecule, CC(=O)Nc1ccc(O)cc1 [Paracetamol, 4-acetamidophenol, reference compound] : % ICPE (carrageenin-induced rat paw oedema inhibition) is 21 * %

Lookup result for "O=C(O)/C=C/c1ccc(OCc2ccc(Br)cc2)cc1" ; measured % ICPE (carrageenin-induced rat paw oedema inhibition): 41.6 * %

----------
Answer each item with its documented IC50.
system: pancreatic bovine trypsin (Bos taurus, UniProt P00760)
Construct: purchased Sigma Chemical, Co. (St. Louis, MO, USA)
Sequence (P00760 24-246): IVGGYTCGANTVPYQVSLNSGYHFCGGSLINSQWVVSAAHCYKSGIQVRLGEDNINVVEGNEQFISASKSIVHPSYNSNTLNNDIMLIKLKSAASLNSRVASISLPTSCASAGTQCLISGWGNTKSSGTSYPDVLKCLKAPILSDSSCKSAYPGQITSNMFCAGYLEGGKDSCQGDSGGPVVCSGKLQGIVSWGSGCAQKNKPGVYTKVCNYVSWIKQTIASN
protocol.summary: Inhibition of trypsin induced proteolysis in vitro
Assay type: biochemical
condition.context: bovine albumin substrate, pH 7.6, 37 °C; read-out: IC50 μM Trypsin Inh.
Hi, when you answer, please include the unit after the number. Thanks!

The compound listed as O=c1ccc2ccc(O)cc2o1 [Compound 7-HC, 7-hydroxycoumarin, reference compound] has a reported IC50 of 100 µM

So, "Cc1cc(=O)oc2cc(OC(=O)/C=C/c3cccc(Oc4ccccc4)c3)ccc12" ? Its IC50 was 10 µM

The value of IC50 measured for the compound "CCOC(=O)c1ccc(NC(=O)/C=C/c2cccc(Oc3ccccc3)c2)cc1" turned out to be 50 µM

Recorded IC50 (compound "O=C(/C=C/c1cccc(Oc2ccccc2)c1)Nc1ccc(O)cc1" ): 26 µM

Entry "CC(=O)Nc1ccc(OC(=O)/C=C/c2ccc(OCc3ccc(Br)cc3)cc2)cc1" , IC50 reported as 100 µM

----------
system: pancreatic bovine trypsin (Bos taurus, UniProt P00760)
Construct: purchased Sigma Chemical, Co. (St. Louis, MO, USA)
protocol.summary: Inhibition of trypsin induced proteolysis in vitro
Assay type: biochemical
condition.context: % inhibition at 100 μM; read-out: % Trypsin Inh.
What inhibition at 100 µM was measured for each of the following?
// units = %; emit number, no label

// field: inhibition at 100 µM; key: Cc1cc(=O)oc2cc(O)ccc12 [Hymechromone, 4-methyl-7-hydroxycoumarin, reference compound] ; value = 60

// CC(=O)Nc1ccc(OC(=O)/C=C/c2ccccc2)cc1 [Compound 1a, (E) 4-Acetamidophenyl cinnamate] : inhibition at 100 µM value = 34

Entry O=c1ccc2ccccc2o1 [Coumarin, reference compound] ; inhibition at 100 µM = 13

Please fill in: inhibition at 100 µM reported for CCOC(=O)c1ccc(N)cc1 [Benzocaine, reference compound] = 28
